Assay: Permeability in human Caco-2 cells
Format: ADME, cell-based
propertyLabel: permeability (%)

Record excerpt, results attached:
- compoundStructure: "COc1ccc2nc(-c3ccccc3)nc(CCNC(C)=O)c2c1"
  unitAbbrev: "%"
  permeability: 100
- compoundStructure: "CCC(=O)NCCc1nncc2ccc(OC)cc12"
  unitAbbrev: "%"
  permeability: 100
- compoundStructure: "COc1ccc2ncnc(CCNC(C)=O)c2c1"
  unitAbbrev: "%"
  permeability: 100
- compoundStructure: "CCCC(=O)NCCc1nncc2ccc(OC)cc12"
  unitAbbrev: "%"
  permeability: 100

(a) COc1ccc2cccc(CCNC(C)=O)c2c1
(b) COc1ccc2cnnc(CCNC(C)=O)c2c1
So which one has the bigger permeability here, a or b ? Respond with the label that goes with your answer.
a

###

Assay: Oral bioavailability in rat
Type: ADME, organism-based
Conditions: in vivo
propertyLabel: bioavailability (%)

- compoundStructure: "CCCC(=O)NCCc1ncnc2ccc(OC)cc12"
  bioavailability [%]: 69

(1) COc1ccc2cccc(CCNC(C)=O)c2c1
(2) CCC(=O)NCCc1nncc2ccc(OC)cc12
(3) COc1ccc2nc(-c3ccccc3)nc(CCNC(C)=O)c2c1
(4) CCCC(=O)NCCc1nncc2ccc(OC)cc12
(5) COc1ccc2ncnc(CCNC(C)=O)c2c1
// smallest bioavailability at index 0, largest at the end Return the labels ranked in the requested order, please.
3, 1, 4, 2, 5
(3: 2%, 1: 13%, 4: 33%, 2: 54%, 5: 92%)

###

Target: Melatonin receptor type 1B (Homo sapiens)
Sequence (P49286 whole entry): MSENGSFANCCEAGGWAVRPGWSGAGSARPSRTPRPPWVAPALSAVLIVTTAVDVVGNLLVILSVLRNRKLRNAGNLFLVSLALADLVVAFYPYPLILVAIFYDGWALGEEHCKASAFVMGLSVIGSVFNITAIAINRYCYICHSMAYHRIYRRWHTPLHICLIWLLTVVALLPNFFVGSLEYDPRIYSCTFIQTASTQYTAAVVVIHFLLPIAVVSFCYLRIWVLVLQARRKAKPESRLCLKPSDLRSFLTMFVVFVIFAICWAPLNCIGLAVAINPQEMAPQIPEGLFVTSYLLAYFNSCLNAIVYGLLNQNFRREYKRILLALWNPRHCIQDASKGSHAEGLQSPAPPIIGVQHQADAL
Test: Agonist activity at human MT2 expressed in CHO cell membrane incubated for 1 hr by [35S]GTPgammaS binding assay
pEC50: −log10 of the molar value.
propertyLabel: pEC50

- compoundStructure: "COc1ccc2nc(-c3ccccc3)nc(CCNC(C)=O)c2c1"
  pEC50: 6.63
- compoundStructure: "COc1ccc2cnnc(CCNC(C)=O)c2c1"
  pEC50: 6.37
- compoundStructure: "COc1ccc2ncnc(CCNC(C)=O)c2c1"
  pEC50: 6.08
- compoundStructure: "CCC(=O)NCCc1ncnc2ccc(OC)cc12"
  pEC50: 6.62
- compoundStructure: "CCCC(=O)NCCc1ncnc2ccc(OC)cc12"
  pEC50: 6.66

(I) COc1ccc2cnnc(CCNC(=O)C3CC3)c2c1
(II) CCC(=O)NCCc1nncc2ccc(OC)cc12
(III) CCCC(=O)NCCc1nncc2ccc(OC)cc12
(IV) COc1cccc(-c2nc(CCNC(C)=O)c3cc(OC)ccc3n2)c1
Endpoint returns the given compounds ordered by ascending pEC50. Please respond with the labels ordered as the question requires.
I, IV, II, III
(I: 5.90, IV: 6.27, II: 6.49, III: 7.05)
